Experiment: isobaric coefficient of expansion
Settings: 338.15 K; 40000 kPa; Liquid; DSC
The molecules listed here are annotated with their isobaric coefficient of expansion.

Examples with answers:
CCCCCCCCCC [decane] ... 0.000836 1/K
ClC(Cl)(Cl)Cl [tetrachloromethane] ... 0.00102 1/K
CCCCCCCCC [nonane] ... 0.000866 1/K
CCCCCCCCCCC [undecane] ... 0.00081 1/K
CCCCCCCCCCCC [dodecane] ... 0.000788 1/K

# isobaric coefficient of expansion of CCCCCCCCCCCCC [tridecane] = 0.000761 1/K

# isobaric coefficient of expansion of CCCCCCCCCCCCCC [tetradecane] = 0.000749 1/K

# isobaric coefficient of expansion of CCCCCCCCCCCCCCC [pentadecane] = 0.000738 1/K

# isobaric coefficient of expansion of c1ccccc1 [benzene] = 0.00101 1/K

###

Test: isobaric coefficient of expansion
Conditions: 278.15 K; 40000 kPa; Liquid; DSC
The compounds listed here are annotated with their isobaric coefficient of expansion.

Examples with answers:
CCCCCCCCC ... 0.000841 1/K
CCCCCCCCCCC ... 0.000797 1/K
CCCCCCCCCC ... 0.000817 1/K
ClC(Cl)(Cl)Cl ... 0.000979 1/K

Read the next record carefully.
# isobaric coefficient of expansion of CCCCCCCCCCCC = 0.000786 1/K

###

The molecules listed here are annotated with their isobaric coefficient of expansion.
Assay: isobaric coefficient of expansion
Conditions: 318.15 K; 10000 kPa; Liquid; DSC

CCCCCCCCCC ... 0.001 1/K
ClC(Cl)(Cl)Cl ... 0.0012 1/K
CCCCCCCCCCCCC ... 0.000892 1/K

# isobaric coefficient of expansion of c1ccccc1 = 0.00119 1/K

# isobaric coefficient of expansion of CCCCCCCCCCCC = 0.000932 1/K

# isobaric coefficient of expansion of CCCCCCCCCCCCCC = 0.00089 1/K

# isobaric coefficient of expansion of CCCCCCCCCCC = 0.00096 1/K

# isobaric coefficient of expansion of CCCCCCCCC = 0.00104 1/K

# isobaric coefficient of expansion of CCCCCCCCCCCCCCC = 0.000873 1/K

###

The compounds listed here are annotated with their isobaric coefficient of expansion.
Experiment: isobaric coefficient of expansion
Settings: 338.15 K; 30000 kPa; Liquid; DSC

Examples with answers:
CCCCCCCCC ... 0.000931 1/K
CCCCCCCCCCC ... 0.00086 1/K
CCCCCCCCCCCCCC ... 0.000789 1/K
c1ccccc1 ... 0.00107 1/K
CCCCCCCCCCCCC ... 0.000801 1/K
CCCCCCCCCCCC ... 0.000838 1/K
ClC(Cl)(Cl)Cl ... 0.00108 1/K
CCCCCCCCCC ... 0.000891 1/K

# isobaric coefficient of expansion of CCCCCCCCCCCCCCC = 0.000782 1/K

###

Assay: isobaric coefficient of expansion
Settings: 348.15 K; 40000 kPa; Liquid; DSC
The molecules listed here are annotated with their isobaric coefficient of expansion.

Examples with answers:
CCCCCCCCCCCCCCC ... 0.000737 1/K
CCCCCCCCCCC ... 0.00081 1/K
CCCCCCCCCCCC ... 0.00079 1/K
CCCCCCCCC ... 0.000869 1/K
c1ccccc1 ... 0.00102 1/K
CCCCCCCCCCCCC ... 0.000756 1/K
CCCCCCCCCC ... 0.000835 1/K
CCCCCCCCCCCCCC ... 0.000747 1/K

Read the next record carefully.
# isobaric coefficient of expansion of ClC(Cl)(Cl)Cl = 0.00102 1/K

###

Experiment: isobaric coefficient of expansion
Settings: 298.15 K; 30000 kPa; Liquid; DSC
Reported Property: isobaric coefficient of expansion

Examples with answers:
ClC(Cl)(Cl)Cl ... 0.00104 1/K
CCCCCCCCCCC ... 0.000845 1/K
CCCCCCCCCCCCC ... 0.000799 1/K
CCCCCCCCCCCCCCC ... 0.000793 1/K

# isobaric coefficient of expansion of CCCCCCCCC = 0.000903 1/K

# isobaric coefficient of expansion of CCCCCCCCCCCCCC = 0.000798 1/K

###

Experiment: isobaric coefficient of expansion
Conditions: 338.15 K; 10000 kPa; Liquid; DSC
Reported Property: isobaric coefficient of expansion

ClC(Cl)(Cl)Cl ... 0.00125 1/K
CCCCCCCCCCCCCCC ... 0.000883 1/K
CCCCCCCCCCCC ... 0.00095 1/K
c1ccccc1 ... 0.00123 1/K

# isobaric coefficient of expansion of CCCCCCCCCCC = 0.000983 1/K

# isobaric coefficient of expansion of CCCCCCCCCCCCC = 0.000917 1/K

###

Assay: isobaric coefficient of expansion
Conditions: 288.15 K; 10000 kPa; Liquid; DSC
Reported Property: isobaric coefficient of expansion

Examples with answers:
CCCCCCCCCCCCC [tridecane] ... 0.00086 1/K
ClC(Cl)(Cl)Cl [tetrachloromethane] ... 0.00113 1/K

# isobaric coefficient of expansion of CCCCCCCCCC [decane] = 0.000958 1/K

# isobaric coefficient of expansion of CCCCCCCCC [nonane] = 0.000997 1/K

# isobaric coefficient of expansion of CCCCCCCCCCC [undecane] = 0.000924 1/K

# isobaric coefficient of expansion of CCCCCCCCCCCC [dodecane] = 0.000902 1/K

###

Assay: isobaric coefficient of expansion
Conditions: 338.15 K; 20000 kPa; Liquid; DSC
Reported Property: isobaric coefficient of expansion

CCCCCCCCC ... 0.000992 1/K

Read the next record carefully.
# isobaric coefficient of expansion of CCCCCCCCCC = 0.00095 1/K

###

Assay: isobaric coefficient of expansion
Conditions: 328.15 K; 5000 kPa; Liquid; DSC
The compounds listed here are annotated with their isobaric coefficient of expansion.

Examples with answers:
CCCCCCCCCCCC [dodecane] ... 0.000975 1/K
CCCCCCCCCCCCCC [tetradecane] ... 0.000922 1/K
CCCCCCCCCCCCC [tridecane] ... 0.000936 1/K
CCCCCCCCCC [decane] ... 0.00105 1/K
ClC(Cl)(Cl)Cl [tetrachloromethane] ... 0.00126 1/K

# isobaric coefficient of expansion of CCCCCCCCC [nonane] = 0.0011 1/K

# isobaric coefficient of expansion of CCCCCCCCCCCCCCC [pentadecane] = 0.000904 1/K

# isobaric coefficient of expansion of CCCCCCCCCCC [undecane] = 0.00101 1/K

# isobaric coefficient of expansion of c1ccccc1 [benzene] = 0.00126 1/K

###

Experiment: isobaric coefficient of expansion
Details: 328.15 K; 30000 kPa; Liquid; DSC
Reported Property: isobaric coefficient of expansion

Examples with answers:
CCCCCCCCCC [decane] ... 0.000885 1/K
CCCCCCCCCCCCC [tridecane] ... 0.0008 1/K
CCCCCCCCCCCC [dodecane] ... 0.000835 1/K

# isobaric coefficient of expansion of c1ccccc1 [benzene] = 0.00106 1/K

# isobaric coefficient of expansion of ClC(Cl)(Cl)Cl [tetrachloromethane] = 0.00107 1/K

# isobaric coefficient of expansion of CCCCCCCCCCCCCCC [pentadecane] = 0.000781 1/K

###

The compounds listed here are annotated with their isobaric coefficient of expansion.
Assay: isobaric coefficient of expansion
Conditions: 348.15 K; 20000 kPa; Liquid; DSC

Examples with answers:
CCCCCCCCCCCC ... 0.000891 1/K
CCCCCCCCCC ... 0.000956 1/K
CCCCCCCCC ... 0.000998 1/K
CCCCCCCCCCC ... 0.000917 1/K
CCCCCCCCCCCCCCC ... 0.000826 1/K

# isobaric coefficient of expansion of ClC(Cl)(Cl)Cl = 0.00116 1/K

# isobaric coefficient of expansion of CCCCCCCCCCCCCC = 0.000839 1/K

# isobaric coefficient of expansion of CCCCCCCCCCCCC = 0.000863 1/K

# isobaric coefficient of expansion of c1ccccc1 = 0.00115 1/K

###

Experiment: isobaric coefficient of expansion
Settings: 348.15 K; 45000 kPa; Liquid; DSC
Reported Property: isobaric coefficient of expansion

Examples with answers:
CCCCCCCCCCCCCC ... 0.000726 1/K
CCCCCCCCCC ... 0.000816 1/K
CCCCCCCCC ... 0.000844 1/K
c1ccccc1 ... 0.000986 1/K
CCCCCCCCCCCC ... 0.00077 1/K

# isobaric coefficient of expansion of CCCCCCCCCCC = 0.000787 1/K

# isobaric coefficient of expansion of CCCCCCCCCCCCC = 0.000741 1/K

# isobaric coefficient of expansion of CCCCCCCCCCCCCCC = 0.00072 1/K

# isobaric coefficient of expansion of ClC(Cl)(Cl)Cl = 0.000993 1/K
